B1: glmS ribozyme (parent)
chain: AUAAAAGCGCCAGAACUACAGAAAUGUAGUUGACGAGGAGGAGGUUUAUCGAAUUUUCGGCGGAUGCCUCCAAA

- Variants of: B1
- assay-comment: self-cleavage kobs at 640 uM GlcN6P; higher = faster cleavage; RNA array
- assay-conditions: with glucosamine-6-phosphate
Fewer inactive variants are shown than the library holds.
Please mark 1 if the recorded self-cleavage kobs at 640 uM GlcN6P is equal to or greater than 0.0004 s⁻¹, and -1 if it falls below.

As a guide, the following entries are already answered.
Ask: State whether the measured self-cleavage kobs at 640 uM GlcN6P reaches 0.0004 s⁻¹, counting equality as reaching it, for A14G G40A G41U G66A
Reply: -1

Ask: State whether the measured self-cleavage kobs at 640 uM GlcN6P reaches 0.0004 s⁻¹, counting equality as reaching it, for U69G
Reply: 1

Ask: State whether the measured self-cleavage kobs at 640 uM GlcN6P reaches 0.0004 s⁻¹, counting equality as reaching it, for U31A G38U A42C U55G
Reply: -1

Ask: State whether the measured self-cleavage kobs at 640 uM GlcN6P reaches 0.0004 s⁻¹, counting equality as reaching it, for G37C A48U U57G
Reply: -1

Ask: State whether the measured self-cleavage kobs at 640 uM GlcN6P reaches 0.0004 s⁻¹, counting equality as reaching it, for G32C A33U A52G
Reply: -1

New cases:
Ask: State whether the measured self-cleavage kobs at 640 uM GlcN6P reaches 0.0004 s⁻¹, counting equality as reaching it, for U54G G62C
Reply: -1

Ask: State whether the measured self-cleavage kobs at 640 uM GlcN6P reaches 0.0004 s⁻¹, counting equality as reaching it, for A12U A64G
Reply: 1

Ask: State whether the measured self-cleavage kobs at 640 uM GlcN6P reaches 0.0004 s⁻¹, counting equality as reaching it, for A15U U31A C34A
Reply: -1

Ask: State whether the measured self-cleavage kobs at 640 uM GlcN6P reaches 0.0004 s⁻¹, counting equality as reaching it, for A12C G41A
Reply: -1

Ask: State whether the measured self-cleavage kobs at 640 uM GlcN6P reaches 0.0004 s⁻¹, counting equality as reaching it, for G29U A42G G62C
Reply: -1

Ask: State whether the measured self-cleavage kobs at 640 uM GlcN6P reaches 0.0004 s⁻¹, counting equality as reaching it, for A12G C70G
Reply: -1
